Target: G3BP1 NTF2-like domain, tag cleaved (FP) (human, UniProt Q13283 11-133)
Sequence (Q13283 11-133): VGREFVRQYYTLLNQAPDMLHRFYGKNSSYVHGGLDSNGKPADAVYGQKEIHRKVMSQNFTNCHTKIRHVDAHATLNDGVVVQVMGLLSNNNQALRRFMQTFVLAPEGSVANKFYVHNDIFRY
Assay: fluorescence polarisation
Result Type: pKd
Here pKd is given on a logarithmic scale as minus log10 of the concentration in mol/L.

Request: # input binder: APRITFGGPSDSTGS [wildtype SARS-CoV-2 N 12-26 peptide] ; wanted: its pKd
Result: 5.64
